# experiment: In vitro metabolic stability in human liver microsomes (LC-MS)
# Format: in vitro ADME
# experimental.context: HLM 0.53 mg/mL, 1 mM NADPH, compound 10 µM, phosphate buffer pH 7.4, 37°C; percentage of peak area of trans isomer at start of incubation
Under this convention, 1 denotes % of compound remaining after 120 min incubation strictly below 80% and 0 denotes % of compound remaining after 120 min incubation at or above 80%.

Strictly below 80% in % of compound remaining after 120 min incubation? Cc1cc(S(N)(=O)=O)c(S/C(=N/Nc2ccc([N+](=O)[O-])cc2)c2ccccc2)cc1Cl
0

Strictly below 80% in % of compound remaining after 120 min incubation? Cc1cc(S(N)(=O)=O)c(SC(=NNc2ccc([N+](=O)[O-])cc2)c2ccc(O)c(Br)c2)cc1Cl
1

Strictly below 80% in % of compound remaining after 120 min incubation? CCC/C(=N\Nc1ccc([N+](=O)[O-])cc1)Sc1cc(Cl)c(C)cc1S(N)(=O)=O
1

Strictly below 80% in % of compound remaining after 120 min incubation? Cc1cc(S(N)(=O)=O)c(S/C(=N/Nc2ccc([N+](=O)[O-])cc2)c2ccc([N+](=O)[O-])cc2)cc1Cl
0

Strictly below 80% in % of compound remaining after 120 min incubation? Cc1cc(S(N)(=O)=O)c(S/C(=N/Nc2ccc([N+](=O)[O-])cc2[N+](=O)[O-])C(C)C)cc1Cl
1

Strictly below 80% in % of compound remaining after 120 min incubation? Cc1cc(S(N)(=O)=O)c(S/C(=N/Nc2ccc([N+](=O)[O-])cc2)c2ccc(Cl)cc2)cc1Cl
0

Strictly below 80% in % of compound remaining after 120 min incubation? Cc1cc(S(N)(=O)=O)c(S/C(=N/Nc2ccc([N+](=O)[O-])cc2)C(C)(C)C)cc1Cl
0

Strictly below 80% in % of compound remaining after 120 min incubation? CCCCC/C(=N\Nc1ccc([N+](=O)[O-])cc1)Sc1cc(Cl)c(C)cc1S(N)(=O)=O
1

====

# experiment: Chemical stability / cis-trans isomerization in solution (LC-MS)
# Format: physicochemical
# experimental.context: biotransformation incubation samples, start of incubation
quantity.measured: % of isomerization at the beginning of incubation (%)
Answer format: numeric, % implied, no suffix.

Give the measured % of isomerization at the beginning of incubation of Cc1cc(S(N)(=O)=O)c(S/C(=N/Nc2ccc([N+](=O)[O-])cc2)c2ccc(Cl)cc2)cc1Cl .
7.79

Give the measured % of isomerization at the beginning of incubation of CCC(=NNc1ccc([N+](=O)[O-])cc1)Sc1cc(Cl)c(C)cc1S(N)(=O)=O .
5.84

Give the measured % of isomerization at the beginning of incubation of Cc1cc(S(N)(=O)=O)c(S/C(CCc2ccccc2)=N/Nc2ccc([N+](=O)[O-])cc2)cc1Cl .
5.25

Give the measured % of isomerization at the beginning of incubation of Cc1ccc(/C(=N\Nc2ccc([N+](=O)[O-])cc2)Sc2cc(Cl)c(C)cc2S(N)(=O)=O)cc1 .
5.41

Give the measured % of isomerization at the beginning of incubation of COc1ccc(/C(=N\Nc2ccc([N+](=O)[O-])cc2)Sc2cc(Cl)c(C)cc2S(N)(=O)=O)cc1 .
2.66

Give the measured % of isomerization at the beginning of incubation of Cc1cc(S(N)(=O)=O)c(S/C(=N/Nc2ccc([N+](=O)[O-])cc2)c2ccccc2)cc1Cl .
9.28

Give the measured % of isomerization at the beginning of incubation of CCCCC/C(=N\Nc1ccc([N+](=O)[O-])cc1)Sc1cc(Cl)c(C)cc1S(N)(=O)=O .
5.53

Give the measured % of isomerization at the beginning of incubation of Cc1cc(S(N)(=O)=O)c(S/C(=N/Nc2ccc([N+](=O)[O-])cc2)C(C)C)cc1Cl .
7.76

Give the measured % of isomerization at the beginning of incubation of CCC/C(=N\Nc1ccc([N+](=O)[O-])cc1)Sc1cc(Cl)c(C)cc1S(N)(=O)=O .
6.52

Give the measured % of isomerization at the beginning of incubation of Cc1cc(S(N)(=O)=O)c(S/C(=N/Nc2ccc([N+](=O)[O-])cc2[N+](=O)[O-])C(C)C)cc1Cl .
0.00

Give the measured % of isomerization at the beginning of incubation of Cc1cc(S(N)(=O)=O)c(S/C(=N/Nc2ccc([N+](=O)[O-])cc2)c2ccc([N+](=O)[O-])cc2)cc1Cl .
1.50

Give the measured % of isomerization at the beginning of incubation of Cc1cc(S(N)(=O)=O)c(S/C(CC(C)C)=N/Nc2ccc([N+](=O)[O-])cc2)cc1Cl .
5.84

Give the measured % of isomerization at the beginning of incubation of Cc1cc(S(N)(=O)=O)c(S/C(=N/Nc2ccc([N+](=O)[O-])cc2)C(C)(C)C)cc1Cl .
3.50

Give the measured % of isomerization at the beginning of incubation of Cc1cc(S(N)(=O)=O)c(S/C(=N/Nc2ccc([N+](=O)[O-])cc2)c2ccc3ccccc3c2)cc1Cl .
4.93
